Consider the following molecules and their measured inhibition at 1 µM readings.
Target: human ANO6 (Homo sapiens, UniProt Q4KMQ2)
Construct: expressed in transfected cells
Assay: LACT C2 assay (phosphatidylserine scramblase function assay)
Type: cell-based
Conditions: test compound 1 μM, FRT cells expressing human ANO6, 10 μM ionomycin, read-out: Inhibition Level 1 μM
Description: Phosphatidylserine Scramblase Function Assay 1. Materials and Instruments […] FRT cells stably expressing human ANO6 were plated in 96 well black-walled microplates at a density of 2×10^4 cells/well. […] Quantitative analysis of the fluorescence intensity of Lact-C2-GFP was performed with Python3 and OpenCV. OpenCV was used to remove background and noise pixels, and the sum of all remaining pixel values was used to evaluate the fluorescence intensity of Lact-C2-GFP. […]

>  <molecule>
O=C(NCCc1ccccc1C(=O)O)c1cccc(Nc2ncc(-c3cccc(F)c3)cn2)c1 [Compound 132]

>  <inhibition at 1 µM>
< 30%

$$$$
>  <molecule>
COc1ccc(CNC(=O)c2cccc(Nc3ccc(-c4ccccc4)nn3)c2)cc1 [Compound A77]

>  <inhibition at 1 µM>
< 30%

$$$$
>  <molecule>
O=C(NCc1ccccc1C(F)(F)F)c1cccc(Nc2ncc(-c3cccc(F)c3)cn2)c1 [Compound 204]

>  <inhibition at 1 µM>
30 to 60%

$$$$
>  <molecule>
O=C(Nc1cccc(F)c1)c1cccc(Nc2ccc(-c3ccc(F)cc3)nn2)c1 [Compound A15]

>  <inhibition at 1 µM>
30 to 60%

$$$$
>  <molecule>
Cc1ccc(NC(=O)c2cccc(Nc3ncc(-c4cccc(F)c4)cn3)c2)cc1 [Compound A102]

>  <inhibition at 1 µM>
≥ 60%

$$$$
>  <molecule>
O=C(N[C@@H]1C[C@H]1c1ccccc1)c1cccc(Nc2ccc(-c3ccccn3)cc2)c1 [Compound 155]

>  <inhibition at 1 µM>
≥ 60%

$$$$
>  <molecule>
Nc1ccccc1CCNC(=O)c1cccc(Nc2ncc(-c3cccc(F)c3)cn2)c1 [Compound 148]

>  <inhibition at 1 µM>
< 30%

$$$$
>  <molecule>
Cc1ccc(CNC(=O)c2cccc(Nc3ncc(-c4cccc(F)c4)cn3)c2)c(C)c1 [Compound 206]

>  <inhibition at 1 µM>
30 to 60%

$$$$

----------
Molecular target: human ANO6 (Homo sapiens)
Construct: expressed in transfected cells
Experiment: LACT C2 assay (phosphatidylserine scramblase function assay)
Assay type: cell-based
Details: test compound 1 μM, FRT cells expressing human ANO6, 10 μM ionomycin, read-out: Inhibition Level 1 μM
Form field: inhibition at 1 µM (one value per entry).

>  <compound>
O=C(NCCc1ccc(F)cc1)c1cccc(Nc2ccc(-c3ccccc3)nn2)c1 [Compound 198]

>  <inhibition at 1 µM>
≥ 60%

$$$$
>  <compound>
O=C(N[C@@H]1C[C@H]1c1ccccc1)c1cccc(Nc2ncc(-c3ccoc3)cn2)c1 [Compound 157]

>  <inhibition at 1 µM>
≥ 60%

$$$$
>  <compound>
O=C(NCCc1ccc(Cl)cc1)c1cccc(Nc2ccc(-c3ccccc3)nn2)c1 [Compound A45]

>  <inhibition at 1 µM>
≥ 60%

$$$$
>  <compound>
CC(C)CNC(=O)c1cccc(Nc2ccc(-c3ccc(F)cc3)nn2)c1 [Compound A11]

>  <inhibition at 1 µM>
< 30%

$$$$
>  <compound>
Cc1ccc(CNC(=O)c2cccc(Nc3ccc(-c4ccccc4)nn3)c2)s1 [Compound 40]

>  <inhibition at 1 µM>
≥ 60%

$$$$
>  <compound>
O=C(NCc1cc(F)c(F)cc1F)c1cccc(Nc2ncc(-c3cccc(F)c3)cn2)c1 [Compound 209]

>  <inhibition at 1 µM>
< 30%

$$$$
>  <compound>
Cc1ccc(CNC(=O)c2cccc(Nc3ccc(-c4ccccc4)nn3)c2)cc1 [Compound A52]

>  <inhibition at 1 µM>
< 30%

$$$$
>  <compound>
Cc1ccc(CNC(=O)c2cccc(Nc3ccc(-c4ccsc4)nn3)c2)o1 [Compound 73]

>  <inhibition at 1 µM>
≥ 60%

$$$$
>  <compound>
CCOc1ccc(NC(=O)c2cccc(Nc3ccc(-c4ccccc4)nn3)c2)cc1 [Compound A80]

>  <inhibition at 1 µM>
≥ 60%

$$$$
>  <compound>
O=C(NCc1ccc(F)c(C(F)(F)F)c1)c1cccc(Nc2ccc(-c3ccccc3)nn2)c1 [Compound 195]

>  <inhibition at 1 µM>
≥ 60%

$$$$
>  <compound>
O=C(NCc1ccc(F)cc1F)c1cccc(Nc2ncc(-c3cccc(F)c3)cn2)c1 [Compound 215]

>  <inhibition at 1 µM>
< 30%

$$$$
>  <compound>
Cc1ccc(CNC(=O)c2cccc(Nc3ncc(-c4ccoc4C)cn3)c2)o1 [Compound 112]

>  <inhibition at 1 µM>
30 to 60%

$$$$
>  <compound>
O=C(Nc1cccc(F)c1)c1cccc(Nc2ccc(-c3ccccc3)cn2)c1 [Compound 128]

>  <inhibition at 1 µM>
≥ 60%

$$$$
>  <compound>
O=C(NCCC1CCCCC1)c1cccc(Nc2ncc(-c3ccccc3)cn2)c1 [Compound 81]

>  <inhibition at 1 µM>
≥ 60%

$$$$
>  <compound>
Cc1ccc(CNC(=O)c2cccc(Nc3ccc(-c4cccc(F)c4)cn3)c2)o1 [Compound 125]

>  <inhibition at 1 µM>
≥ 60%

$$$$
>  <compound>
O=C(Nc1cccc(F)c1)c1cccc(Nc2ccc(-c3ccccc3)nn2)c1 [Compound 29]

>  <inhibition at 1 µM>
≥ 60%

$$$$
>  <compound>
CC(C)CCNC(=O)c1cccc(Nc2ccc(-c3ccccc3)nn2)c1 [Compound A70]

>  <inhibition at 1 µM>
≥ 60%

$$$$
>  <compound>
N#CC1(NC(=O)c2cccc(Nc3ncc(-c4cccc(F)c4)cn3)c2)CC1 [Compound 218]

>  <inhibition at 1 µM>
30 to 60%

$$$$
>  <compound>
O=C(N[C@@H]1C[C@H]1c1ccccc1)c1cccc(Nc2nnc(-c3ccccc3)o2)c1 [Compound 159]

>  <inhibition at 1 µM>
30 to 60%

$$$$
>  <compound>
CC(C)NC(=O)c1cccc(Nc2ccc(-c3ccccc3)nn2)c1 [Compound A12]

>  <inhibition at 1 µM>
< 30%

$$$$
>  <compound>
O=C(NCc1ccccc1Cl)c1cccc(Nc2ccc(-c3ccccc3)nn2)c1 [Compound A46]

>  <inhibition at 1 µM>
≥ 60%

$$$$
>  <compound>
O=C(NC1(CO)CC1)c1cccc(Nc2ncc(-c3cccc(F)c3)cn2)c1 [Compound 219]

>  <inhibition at 1 µM>
< 30%

$$$$
>  <compound>
CCCNC(=O)c1cccc(Nc2ccc(-c3ccccc3)nn2)c1 [Compound A68]

>  <inhibition at 1 µM>
< 30%

$$$$
>  <compound>
CN1CCC(CNC(=O)c2cccc(Nc3ccc(-c4cccc(F)c4)cn3)c2)C1 (stereo not shown) [Compound 145]

>  <inhibition at 1 µM>
< 30%

$$$$
>  <compound>
O=C(NCc1cccs1)c1cccc(Nc2ccc(-c3ccccc3)nn2)c1 [Compound 39]

>  <inhibition at 1 µM>
< 30%

$$$$
>  <compound>
O=C(Nc1cccc([N+](=O)[O-])c1)c1cccc(Nc2ncc(-c3cccc(F)c3)cn2)c1 [Compound 137]

>  <inhibition at 1 µM>
≥ 60%

$$$$
>  <compound>
Cc1ccc(CNC(=O)c2cccc(Nc3ccc(-c4ccc(F)cc4)nn3)c2)o1 [Compound A1]

>  <inhibition at 1 µM>
< 30%

$$$$
>  <compound>
O=C(N[C@@H]1C[C@H]1c1ccccc1)c1cccc(Nc2ccc(-c3cccc(F)c3)cn2)c1 [Compound 123]

>  <inhibition at 1 µM>
≥ 60%

$$$$
>  <compound>
O=C(NCCC12CC3CC(CC(C3)C1)C2)c1cccc(Nc2ccc(-c3cccc(F)c3)cn2)c1 [Compound 142]

>  <inhibition at 1 µM>
≥ 60%

$$$$
>  <compound>
CN1CCN(c2ccc(CNC(=O)c3cccc(Nc4ccc(-c5ccccc5)nn4)c3)cc2)CC1 [Compound 197]

>  <inhibition at 1 µM>
< 30%

$$$$
>  <compound>
O=C(NC1CC1)c1cccc(Nc2ccc(-c3ccccc3)nn2)c1 [Compound 38]

>  <inhibition at 1 µM>
< 30%

$$$$
>  <compound>
O=C(NCc1ccccc1F)c1cccc(Nc2ncc(-c3cccc(F)c3)cn2)c1 [Compound 203]

>  <inhibition at 1 µM>
< 30%

$$$$
>  <compound>
O=C(NCc1ccc(Br)cc1)c1cccc(Nc2ccc(-c3ccc(F)cc3)nn2)c1 [Compound A26]

>  <inhibition at 1 µM>
< 30%

$$$$
>  <compound>
Cc1ccc(CCNC(=O)c2cccc(Nc3ncc(-c4ccccc4)cn3)c2)o1 [Compound 153]

>  <inhibition at 1 µM>
< 30%

$$$$

----------
This listing pairs compounds with measured inhibition at 1 µM.
Target: human ANO6 (Homo sapiens)
Construct: expressed in transfected cells
Sequence (Q4KMQ2 1-931 isoform Q4KMQ2-2): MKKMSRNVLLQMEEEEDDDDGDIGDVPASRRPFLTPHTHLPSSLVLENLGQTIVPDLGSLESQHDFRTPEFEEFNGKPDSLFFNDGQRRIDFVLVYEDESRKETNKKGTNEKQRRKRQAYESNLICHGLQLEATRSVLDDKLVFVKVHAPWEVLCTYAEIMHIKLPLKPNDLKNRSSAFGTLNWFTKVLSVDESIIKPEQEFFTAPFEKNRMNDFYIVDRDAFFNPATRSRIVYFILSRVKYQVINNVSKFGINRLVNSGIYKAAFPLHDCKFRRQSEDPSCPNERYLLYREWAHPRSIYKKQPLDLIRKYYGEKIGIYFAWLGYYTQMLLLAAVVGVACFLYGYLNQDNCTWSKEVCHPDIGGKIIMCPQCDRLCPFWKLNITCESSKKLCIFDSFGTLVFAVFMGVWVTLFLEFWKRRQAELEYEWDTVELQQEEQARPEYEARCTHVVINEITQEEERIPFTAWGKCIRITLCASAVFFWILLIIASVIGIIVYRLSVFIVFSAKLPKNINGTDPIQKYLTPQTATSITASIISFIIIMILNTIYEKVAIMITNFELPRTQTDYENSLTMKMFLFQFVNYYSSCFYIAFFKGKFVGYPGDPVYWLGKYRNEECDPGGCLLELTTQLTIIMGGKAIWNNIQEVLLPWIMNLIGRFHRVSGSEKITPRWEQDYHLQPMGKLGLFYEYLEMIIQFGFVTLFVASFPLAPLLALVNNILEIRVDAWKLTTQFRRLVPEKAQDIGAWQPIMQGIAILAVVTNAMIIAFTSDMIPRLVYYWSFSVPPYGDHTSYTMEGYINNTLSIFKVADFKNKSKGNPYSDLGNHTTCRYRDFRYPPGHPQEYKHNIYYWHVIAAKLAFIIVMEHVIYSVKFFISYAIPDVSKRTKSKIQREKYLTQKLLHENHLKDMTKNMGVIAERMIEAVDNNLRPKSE
Test: LACT C2 assay (phosphatidylserine scramblase function assay)
Assay type: cell-based
Settings: test compound 1 μM, FRT cells expressing human ANO6, 10 μM ionomycin, read-out: Inhibition Level 1 μM

>  <compound>
O=C(NCc1ccc(Cl)c(Cl)c1)c1cccc(Nc2ccc(-c3ccccc3)nn2)c1

>  <target_or_test_system>
human ANO6 (Homo sapiens)

>  <inhibition at 1 µM>
≥ 60%

$$$$
>  <compound>
O=C(NCc1ccc(F)c(F)c1)c1cccc(Nc2ccc(-c3ccccc3)nn2)c1

>  <target_or_test_system>
human ANO6 (Homo sapiens)

>  <inhibition at 1 µM>
30 to 60%

$$$$
>  <compound>
CSc1ccc(CNC(=O)c2cccc(Nc3ccc(-c4ccccc4)nn3)c2)cc1

>  <target_or_test_system>
human ANO6 (Homo sapiens)

>  <inhibition at 1 µM>
30 to 60%

$$$$
>  <compound>
Cc1ccc(CNC(=O)c2cccc(Nc3ccc(-c4cccc(F)c4)nn3)c2)o1

>  <target_or_test_system>
human ANO6 (Homo sapiens)

>  <inhibition at 1 µM>
30 to 60%

$$$$
>  <compound>
N#CC(NC(=O)c1cccc(Nc2ccc(-c3ccccc3)nn2)c1)c1ccc(F)cc1 (centres unmarked)

>  <target_or_test_system>
human ANO6 (Homo sapiens)

>  <inhibition at 1 µM>
< 30%

$$$$
>  <compound>
CN1CCN(c2cc(CNC(=O)c3cccc(Nc4ccc(-c5ccccc5)nn4)c3)ccc2F)CC1

>  <target_or_test_system>
human ANO6 (Homo sapiens)

>  <inhibition at 1 µM>
30 to 60%

$$$$
>  <compound>
O=C(NCc1ccccc1)c1cccc(Nc2ccc(-c3ccccc3)nn2)c1

>  <target_or_test_system>
human ANO6 (Homo sapiens)

>  <inhibition at 1 µM>
30 to 60%

$$$$
>  <compound>
CN1CCC(CNC(=O)c2cccc(Nc3ccc(-c4cccc(F)c4)cn3)c2)CC1

>  <target_or_test_system>
human ANO6 (Homo sapiens)

>  <inhibition at 1 µM>
< 30%

$$$$
>  <compound>
O=C(NCC1CC1)c1cccc(Nc2ccc(-c3ccccc3)nn2)c1

>  <target_or_test_system>
human ANO6 (Homo sapiens)

>  <inhibition at 1 µM>
< 30%

$$$$
>  <compound>
O=C(Nc1cccc(F)c1)c1cccc(Nc2ccc(-c3cccc(F)c3)cn2)c1

>  <target_or_test_system>
human ANO6 (Homo sapiens)

>  <inhibition at 1 µM>
≥ 60%

$$$$
>  <compound>
Cc1ccc(CNC(=O)c2cccc(Nc3ccc(-c4ccccc4)cc3)c2)o1

>  <target_or_test_system>
human ANO6 (Homo sapiens)

>  <inhibition at 1 µM>
≥ 60%

$$$$
>  <compound>
COc1cc(F)ccc1CNC(=O)c1cccc(Nc2ccc(-c3cccc(F)c3)nn2)c1

>  <target_or_test_system>
human ANO6 (Homo sapiens)

>  <inhibition at 1 µM>
< 30%

$$$$
>  <compound>
Cc1cccc(CNC(=O)c2cccc(Nc3ccc(-c4ccc(F)cc4)nn3)c2)c1

>  <target_or_test_system>
human ANO6 (Homo sapiens)

>  <inhibition at 1 µM>
< 30%

$$$$
>  <compound>
O=C(NCc1ccc(Cl)cc1)c1cccc(Nc2ncc(-c3cccc(F)c3)cn2)c1

>  <target_or_test_system>
human ANO6 (Homo sapiens)

>  <inhibition at 1 µM>
30 to 60%

$$$$
>  <compound>
O=C(NCc1ccccc1)c1cccc(Nc2ccc(-c3cccc(F)c3)nn2)c1

>  <target_or_test_system>
human ANO6 (Homo sapiens)

>  <inhibition at 1 µM>
< 30%

$$$$
>  <compound>
O=C(N[C@@H]1C[C@H]1c1ccc(F)cc1)c1cccc(Nc2ccc(-c3ccccc3)nn2)c1

>  <target_or_test_system>
human ANO6 (Homo sapiens)

>  <inhibition at 1 µM>
≥ 60%

$$$$
>  <compound>
O=C(NCc1ccccc1)c1cccc(Nc2ccc(-c3ccc(F)cc3)nn2)c1

>  <target_or_test_system>
human ANO6 (Homo sapiens)

>  <inhibition at 1 µM>
< 30%

$$$$
